Hello, the source for this data is patent US20240317851A1, in case you need it.

Target: T1, human Claudin 6 (human, UniProt P56747 1-220)
T1 construct: whole, on cells; also called CLDN6
T1 sequence (looked up): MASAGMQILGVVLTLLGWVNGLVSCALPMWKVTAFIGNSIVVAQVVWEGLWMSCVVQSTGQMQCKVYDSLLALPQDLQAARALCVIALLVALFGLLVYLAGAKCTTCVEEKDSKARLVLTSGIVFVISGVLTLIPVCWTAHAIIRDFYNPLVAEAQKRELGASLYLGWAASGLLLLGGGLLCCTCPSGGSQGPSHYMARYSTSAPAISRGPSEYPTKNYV
Assay: flow cytometry, HEK293/H_CLDN6 cells, Ab titrated from 100 nM
This section presents binders with their documented Top MFI values.
Format: numeric value only, no unit, no commentary.

81-H10F8 (antibody, V domains shown, Tested as chimeric antibody) VH: EVQLQQSGPELVKPGASVKISCKTSGYTFTEYTMHWVKQSHGKSLEWIGGINPNNGGTSYNQKFKGKATLTVDKSSRTAYMELRSLTSEDSAVYYCARGMVVAFYFDCWGQGTTLTVSS VL: DIQMTQSPASQSASLGESVTITCLASQTIGTWLAWYQQKPGKSPQLLIYAATGLADGVPSRFSGGGSGTKFSFKISSLQVEDFVSYYCQQLYSTPYTFGGGTKLEIK: 257000
36-E6A6 (antibody, V domains shown, Tested as chimeric antibody) VH: QVQLQQSGGEVVRPGTSVKVSCKASGYAFTNNLIEWVKQRPGQGLEWIGVIHPGSGGSNYNEKFKNKATLTTDKSSSTAYIQLSSLTSDDSAVYFCARRGRDYAMDYWGQGTSVTVSS VL: EIVLTQSPAIMSASLGEKVTMSCRASSSVNSIYWYQQKSDASPKLWIYYTSNLAPGVPARFSGSGSGNSYSLTIRSMEGEDAATYYCQQFTSSPLTFGAGTKLELK: 62100

Using the record for 67-C12E11 (antibody, V domains shown, Tested as chimeric antibody) VH: EVQLQQSGPELVKPGASVKISCKTSGYTFTEYTMHWVKQSHGKSLEWIGGINPNNGGTSYNQKFKGKATLTVDKSSSTAYMELRSLTSEDSAVYYCARGMVVAFYFDSWGQGTTLTVSS VL: DIQMTQSPASQSASLGESVTITCLASQTIGSWLAWYQQKPGKSPQLLIYAATSLADGVPSRFSGSGSGTKFSFKISSLQAEDFVSYYCQQLYSTPYTFGGGTKLEIK , report its Top MFI.
161000

Using the record for 97-C10E1-2 (antibody, V domains shown, Tested as chimeric antibody; also called chimeric antibody 97-C10E1-2) VH: EVQLQQSGPELVKPGASMKISCKASGYAFTGYTMNWVKQSHGKNLEWIGLSNPYNGGTIYNQKFKGKATLTVDKSSSTAYMELLSLTSEDSAVYYCARNYYYGSSYAYYYAMDYWGQGTSVTVSS VL: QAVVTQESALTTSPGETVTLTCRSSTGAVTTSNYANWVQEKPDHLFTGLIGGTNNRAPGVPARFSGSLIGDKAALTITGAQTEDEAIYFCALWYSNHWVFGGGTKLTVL , report its Top MFI.
321000

Using the record for 59-A2E6 (antibody, V domains shown, Tested as chimeric antibody) VH: EVQLQQSGPELVKPGASVKISCKTSGYTFTEYTMHWVKQSHGKSLEWIGGINPKNGGTSYNQKFKGKATLTVDKSSSTVYMEFRSLTTEDSAVYYCARGMLVAFYFDCWGQGTTLTVSS VL: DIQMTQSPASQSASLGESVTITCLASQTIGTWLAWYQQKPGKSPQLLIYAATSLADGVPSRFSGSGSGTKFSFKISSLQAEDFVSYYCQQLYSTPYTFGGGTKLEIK , report its Top MFI.
264000

Using the record for 83-F6A6 (antibody, V domains shown, Tested as chimeric antibody) VH: QVQLQQSAPELARPGASVRMSCKASGYTFTTYTMHWVKQRPGQGLEWIGFIIPSSGYTEYNQNLKDKTTLTADKASSTAYMQLTSLTSEDSAVYYCARQFSLITTGFGYALDYWGQGTSVTVSS VL: DIVMTQSRKFMSTSVGDRVSITCKASQDVSTAVAWYQQKPGQSPKLLLYWASTRHTGVPDRFTGSGSGTDYTLTISSVQAEDLALYYCQQHYSTPLTFGAGTKLELK , report its Top MFI.
258000
